Field: LC retention time. Provide a value for each of the compounds that follow.
- Assay Explanation: RP, Waters ACQUITY UPLC HSS T3, 150 × 2.1 mm, 1.8 µm, 45 °C, 0.6 mL/min, estimated dead time 0.55 min; A: water + 0.1% formic acid, pH 3; B: acetonitrile + 0.1% formic acid, pH 3; gradient (min/%B) 0/1 0.1/1 10/55 10.15/65 10.30/75 10.45/85 10.60/95 10.70/100 11/100 11.55/100 11.65/1 11.70/1 11.80/1 11.90/1 12/1 12.10/1 12.15/1 12.65/1
- Measurement Context: stereoisomer not certain
Where a name gives a salt, the structure may show the parent alone.
Please state the figure in min; there is no need to write the unit.

State its LC retention time for this compound: NC(Cc1ccccc1)C(=O)O (stereo unspecified) [Phenylalanine]
2.05

Provide only the value of recorded LC retention time for NC(CCCCn1c(C=O)ccc1CO)C(=O)O (stereo unspecified) [Pyrraline]
2.49

Fill in reported LC retention time for this entry: O=C(O)CCCCCC(=O)O [Pimelic acid]
3.46

Tell me its LC retention time given O=C(O)CCCCCCC(=O)O [Suberic acid] as the entry.
4.46

Name the recorded LC retention time of the item CC(=O)C1CCC2C3CC=C4CC(OS(=O)(=O)O)CCC4(C)C3CCC12C (stereo unspecified) [Pregnenolone sulfate] in your answer.
9.81

Specify measured LC retention time for CC(CC(=O)O)C(=O)O (stereo unspecified) [Methylsuccinic acid] .
2.19
